B1: glmS ribozyme (parent)
chain: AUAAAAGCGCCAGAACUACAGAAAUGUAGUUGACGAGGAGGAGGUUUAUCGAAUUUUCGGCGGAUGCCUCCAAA

variants of: B1; test: self-cleavage kobs at 640 uM GlcN6P; higher = faster cleavage; RNA array; settings: with glucosamine-6-phosphate
Variants at the floor of the assay were thinned out.
readoutKind: self-cleavage kobs at 640 uM GlcN6P

These recorded examples may help you get a feel for the data.
residuechange="G13A U56A C67A U69G" readoutkind="self-cleavage kobs at 640 uM GlcN6P" experimentalresult="0.000128 s⁻¹"
residuechange="C8A C50G C58G G62A" readoutkind="self-cleavage kobs at 640 uM GlcN6P" experimentalresult="0.000111 s⁻¹"
residuechange="G35C C71A" readoutkind="self-cleavage kobs at 640 uM GlcN6P" experimentalresult="< 1e-05 s⁻¹"

Challenge: Query: self-cleavage kobs at 640 uM GlcN6P; subject: G41A U69A
Response given: < 1e-05 s⁻¹

Challenge: Would you mind doing A15C A33U G40A as well?
Response given: < 1e-05 s⁻¹

Challenge: Would you mind doing A14C C16A C71G as well?
Response given: 6.58e-05 s⁻¹

Challenge: Would you mind doing U30C A33G A52G as well?
Response given: < 1e-05 s⁻¹

Challenge: Would you mind doing A15U C34G G63A as well?
Response given: < 1e-05 s⁻¹
